Test system: mouse embryo DNA-polymerase II (ME-DNA-P2)
procedure text: effect on mouse embryo DNA-polymerase II
Type: biochemical
details: 100μg; activated Calf-Thymus DNA
Description: Oligo dT.Poly rA. ME-DNA-P1 and ME-DNA-p2 : activated
Documented % Control Activity of ME-DNA-P2 at 100μg across a set of compounds
attribute measured: % Control Activity of ME-DNA-P2 at 100μg (%)

compound=CO[C@H]1/C=C/O[C@@]2(C)Oc3c(C)c(O)c4c(O)c(cc(O)c4c3C2=O)NC(=O)/C(C)=C\C=C\[C@H](C)[C@H](O)[C@@H](C)[C@@H](O)[C@@H](C)[C@H](OC(C)=O)[C@@H]1C target_under_test="mouse embryo DNA-polymerase II (ME-DNA-P2)" measured_result=72
compound="COC1C=COC2(C)Oc3c(C)c(O)c4c(O)c(cc(OCC(=O)O)c4c3C2=O)NC(=O)C(C)=CC=CC(C)C(O)C(C)C(O)C(C)C(OC(C)=O)C1C (stereo not drawn)" target_under_test="mouse embryo DNA-polymerase II (ME-DNA-P2)" measured_result=4
compound=CO[C@H]1/C=C/O[C@@]2(C)Oc3c(C)c(O)c4c(c3C2=O)C(=O)C=C(NC(=O)/C(C)=C\C=C\[C@H](C)[C@H](O)[C@@H](C)[C@@H](O)[C@@H](C)[C@H](OC(C)=O)[C@@H]1C)C4=O target_under_test="mouse embryo DNA-polymerase II (ME-DNA-P2)" measured_result=9
compound="COC1C=COC2(C)Oc3c(C)c(O)c4c(O)c(c(C=NN5CCN(C)CC5)c(O)c4c3C2=O)NC(=O)C(C)=CC=CC(C)C(O)C(C)C(O)C(C)C(OC(C)=O)C1C (stereo not drawn)" target_under_test="mouse embryo DNA-polymerase II (ME-DNA-P2)" measured_result=16
compound="COC1C=COC2(C)Oc3c(C)c(O)c4c(O)c(c(C=NNc5ccc([N+](=O)[O-])cc5[N+](=O)[O-])c(O)c4c3C2=O)NC(=O)C(C)=CC=CC(C)C(O)C(C)C(O)C(C)C(OC(C)=O)C1C (stereo not drawn)" target_under_test="mouse embryo DNA-polymerase II (ME-DNA-P2)" measured_result=46
compound="COC1C=COC2(C)Oc3c(C)c(O)c4c(c3C2=O)C2(C=C(NC(=O)C(C)=CC=CC(C)C(O)C(C)C(O)C(C)C(OC(C)=O)C1C)C4=O)OCC(=O)O2 (stereo not drawn)" target_under_test="mouse embryo DNA-polymerase II (ME-DNA-P2)" measured_result=5

---

Documented % Control Activity of SSV-DNA-P at 5μg across a set of compounds
target under test: sarcoma virus DNA-polymerases (SSV-DNA-P) (Woolly monkey sarcoma virus, UniProt P03359)
Construct: sarcoma virus DNA-polymerases (SSV-DNA-P)
Sequence (P03359 642-1310): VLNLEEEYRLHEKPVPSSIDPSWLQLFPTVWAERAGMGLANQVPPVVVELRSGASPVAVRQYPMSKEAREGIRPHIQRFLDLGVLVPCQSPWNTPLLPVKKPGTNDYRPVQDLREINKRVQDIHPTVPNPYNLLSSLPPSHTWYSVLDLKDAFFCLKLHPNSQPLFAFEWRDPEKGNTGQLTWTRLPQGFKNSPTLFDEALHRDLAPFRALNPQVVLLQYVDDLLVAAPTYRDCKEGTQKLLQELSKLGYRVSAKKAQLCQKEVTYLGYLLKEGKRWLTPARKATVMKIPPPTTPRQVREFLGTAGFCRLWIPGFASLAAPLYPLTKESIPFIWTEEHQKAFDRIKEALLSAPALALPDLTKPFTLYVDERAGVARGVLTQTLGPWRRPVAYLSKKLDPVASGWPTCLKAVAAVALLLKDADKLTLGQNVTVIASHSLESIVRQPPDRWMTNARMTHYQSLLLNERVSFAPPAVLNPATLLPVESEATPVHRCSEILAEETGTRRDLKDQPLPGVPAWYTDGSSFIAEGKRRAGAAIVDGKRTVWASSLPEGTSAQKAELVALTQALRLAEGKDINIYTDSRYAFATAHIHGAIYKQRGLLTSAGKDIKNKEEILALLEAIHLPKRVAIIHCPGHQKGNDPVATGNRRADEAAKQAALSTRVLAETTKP
procedure text: effect on activity of SSV-polymerase
Type: biochemical
details: 5μg; template Oligo dT.Poly rA
attribute measured: % Control Activity of SSV-DNA-P at 5μg

mol_smiles=CO[C@H]1/C=C/O[C@@]2(C)Oc3c(C)c(O)c4c(c3C2=O)C(=O)C=C(NC(=O)/C(C)=C\C=C\[C@H](C)[C@H](O)[C@@H](C)[C@@H](O)[C@@H](C)[C@H](OC(C)=O)[C@@H]1C)C4=O measured_result=88%
mol_smiles=CO[C@H]1/C=C/O[C@@]2(C)Oc3c(C)c(O)c4c(O)c(cc(O)c4c3C2=O)NC(=O)/C(C)=C\C=C\[C@H](C)[C@H](O)[C@@H](C)[C@@H](O)[C@@H](C)[C@H](OC(C)=O)[C@@H]1C measured_result=105%
